Hey, just so you know, these numbers are from patent US20210330611A1.

Catalogue of compounds with associated IC50
# test.summary: in vitro
# measurement.setup: rat, Cell Toxicity IC50 (uM) [cFib assay], cFib assay

Would you please look over these solved cases?
Data request: For the compound Cc1cc(-n2c(=O)[nH]c(=O)n(C)c2=O)ccc1Oc1ccc(SC(F)(F)F)cc1 [Toltrazuril, reference compound] , what IC50 is on record?
Data returned: > 20 µM

Data request: Now give it for CC(=O)OCC(=O)[C@@]1(OC(C)=O)[C@@H](C)C[C@H]2[C@@H]3C[C@H](F)C4=CC(=O)C=C[C@]4(C)[C@@]3(F)[C@@H](O)C[C@@]21C [Diflorasone diacetate, reference compound] too.
Data returned: > 20 µM

Okay, next one:
Data request: For the compound CC(C)C(=O)c1c(C(C)C)nn2ccccc12 [Ibudilast, reference compound] , what IC50 is on record?
Data returned: > 20 µM
